Below is a list of entries, each paired with its recorded growth value.
# Test system: UACC-62 melanoma
# Test Summary: NCI-60 one-dose screen, 48 h (100 = growth as untreated, 0 = no growth, -100 = all killed)
# Setup Conditions: 10 µM unless noted
This is part of a sample that, as a whole, favours compounds with a hit. Of some 83,000 tested, about 20% had one in any assay.
Kindly answer with a numeric value in %, unit omitted.

These solved cases illustrate the format of a correct answer.
molecule=CCN(CC)CCSc1c2ccc(Cl)cc2nc2ccc(OC)cc12 assayed_system="UACC-62 melanoma" quantity_measured=growth unit_string=% meas_value=93.2
molecule=CN1CCN(CCCOc2ccc3nc(Nc4ccc(C(F)(F)F)c(Cl)c4)ccc3c2)CC1 assayed_system="UACC-62 melanoma" quantity_measured=growth unit_string=% meas_value=-36.3
molecule=CCCCCCCCCCC/C=C\C[C@H](O)C/C=C1/C(=O)C=C[C@@H]1C/C=C\CCCC(=O)OC assayed_system="UACC-62 melanoma" quantity_measured=growth unit_string=% meas_value=-39.9
molecule=CC/C=C\C[C@H](O)C/C=C1/C(=O)C(Cl)=C[C@@H]1C/C=C\CCCC(=O)OC assayed_system="UACC-62 melanoma" quantity_measured=growth unit_string=% meas_value=-57
molecule="CCN1C(=O)N(CC)C2C1NN=c1s/c(=C3\\C(=O)N(C4CCCC4)c4ccccc43)c(=O)n12 (stereo not given)" assayed_system="UACC-62 melanoma" quantity_measured=growth unit_string=% meas_value=34.9
molecule=NC(=O)c1cccc(N2Cc3ccccc3OC3=C2C(=O)c2c(O)ccc(O)c2C3=O)c1 assayed_system="UACC-62 melanoma" quantity_measured=growth unit_string=% meas_value=-86.1
molecule="COc1ccc2c(c1)C(C)Cc1c(N(C)C)ncnc1N2C (stereo not given)" assayed_system="UACC-62 melanoma" quantity_measured=growth unit_string=% meas_value=27.6
molecule=Clc1cccc(Cl)c1Cn1c(-c2cncs2)nc2ccccc21 assayed_system="UACC-62 melanoma" quantity_measured=growth unit_string=% meas_value=61.2
molecule="CCCC1OC(c2ccc(C(C)C)cc2)OCC1CC (stereo not given)" assayed_system="UACC-62 melanoma" quantity_measured=growth unit_string=% meas_value=102

Give a short answer stating reported growth for COc1ccc(OC)c(NC(=O)c2cc(S(=O)(=O)N3CCc4ccccc43)ccc2OC)c1 .
79.2

Origin of the recorded values: PubChem BioAssay (NCI)
